experiment: Volume of distribution at steady state in rat at 1 mg/kg, iv; type: ADME, organism-based; conditions: in vivo, read-out: Vdss
Attribute Measured: Vd (L/kg)
// units = L/kg; emit number, no label

May I ask what Vd has been recorded for C[C@]1(c2cc(/C=C(\F)c3ccc(C#N)cn3)ccc2F)N=C(N)S[C@@]2(C(=O)N3CCOCC3)C[C@H]21 ?
4.1

* * *

assay: AUCt in rat at 3 mg/kg, po; assay type: ADME, organism-based; parameters: dose 3 mg/kg; conditions: in vivo
Attribute Measured: AUCt (µM·h)
// units = µM·h; emit number, no label

May I ask what AUCt has been recorded for C[C@]1(c2cc(/C=C(\F)c3ccc(C#N)cn3)ccc2F)N=C(N)S[C@@]2(C(=O)N3CCOCC3)C[C@H]21 ?
3.4
